Tested System: T1, cynomolgus CD40-Fc protein (cynomolgus, UniProt G7PG38 21-193)
T1 construct: not shown: Fc part
Test Method Notes: BLI (ForteBio), CD40-Fc on AHQ sensor, 100 nM Fab in solution, monovalent, 1:1 model
Listed binders paired with reported Kd
Give just the number in nM; leave the unit off.

In the examples that follow, each entry is paired with its recorded Kd.
Query: What value of Kd has been recorded for this entry: ADI-55140 Fab (Fab, V domains shown) VH: QVQLVESGGGVVQPGRSLRLSCAASGFTFEKYGMHWVRQAPGKGLEWVAVIHYEGSIKYYADSVKGRFTISRDNSKNTLYLQMNSLRAEDTAVYYCARDTSRGHDIWGQGTMVTVSS VL: EIVLTQSPGTLSLSPGERATLSCRASQSVSYDYLAWYQQKPGQAPRLLIYGASTRANGIPDRFSGSGSGTDFTLTISRLEPEDFAVYYCGEYADYPPFTFGGGTKVEIK
Result: 5.42

Query: How about this binder: ADI-55145 Fab (Fab, V domains shown) VH: QVQLVESGGGVVQPGRSLRLSCAASGFTFEKYGMHWVRQAPGKGLEWVAVISYEGTSKYYADSVKGRFTISRDNSKNTLYLQMNSLRAEDTAVYYCARDTSRGHDIWGQGTMVTVSS VL: EIVLTQSPGTLSLSPGERATLSCQASQSVSYNYLAWYQQKPGQAPRLLIYGASSRNNGIPDRFSGSGSGTDFTLTISRLEPEDFAVYYCQQYSDYPPFTFGGGTKVEIK
Result: 5.72

Query: Try ADI-47741 Fab (Fab, V domains shown) VH: QVQLQESGPGLVKPSETLSLTCTVSGGSISSYYWSWIRQPPGKGLEWIGSIYYSGSTNYNPSLKSRVTISVDTSKNQFSLKLSSVTAADTAVYYCARDANYYKWHPYWGQGTLVTVSS VL: EIVLTQSPGTLSLSPGERATLSCRASQSVSSDYLAWYQQKPGQAPRLLIYGASSRATGIPDRFSGSGSGTDFTLTISRLEPEDFAVYYCQQVLSYPPTFGGGTKVEIK next.
Result: 71

Query: And ADI-47720 Fab (Fab, V domains shown) VH: EVQLVESGGGLVQPGRSLRLSCAASGFTFDDYAMHWVRQAPGKGLEWVSGISWSSGSIGYADSVKGRFTISRDNAKNSLYLQMNSLRAEDTAVYYCAKDPTATTGARGYFDLWGRGTLVTVSS VL: DIQMTQSPSSVSASVGDRVTITCRASQGISSWLAWYQQKPGKAPKLLIYAASSLQSGVPSRFSGSGSGTDFTLTISSLQPEDFATYYCQQRASFPPTFGGGTKVEIK ?
Result: 263

More entries:
Query: Please give the measured Kd for this binder: ADI-55136 Fab (Fab, V domains shown) VH: QVQLVESGGGVVQPGRSLRLSCAASGFTFSSYGMHWVRQAPGKGLEWVAVISYHASSKYYADSVKGRFTISRDNSKNTLYLQMNSLRAEDTAVYYCARDTSRGHDIWGQGTMVTVSS VL: EIVLTQSPGTLSLSPGERATLSCRASQSVSSSYLAWYQQKPGQAPRLLIYGASSRATGIPDRFSGSGSGTDFTLTISRLEPEDFAVYYCQQYADYPPFTFGGGTKVEIK
Result: 78.1
